Experiment: Inhibition of amyloid beta (1-42) aggregation at 10 uM by thioflavin T based fluorometric assay
Returns one of 1 or -1; 1 when inhibition is >= 30%.

Solved cases below.
>  <Molecular string>
O=C1C=C(NCCCNCc2cc3ccccc3o2)C(=O)C=C1NCCCNCc1cc2ccccc2o1

>  <Class name>
-1

$$$$
>  <Molecular string>
COc1cc(CNCCCCCCNC2=CC(=O)C(NCCCCCCNCc3ccc(O)c(OC)c3)=CC2=O)ccc1O

>  <Class name>
1

$$$$
>  <Molecular string>
COc1cc(CNCCCNC2=CC(=O)C(NCCCNCc3ccc(O)c(OC)c3)=CC2=O)ccc1O

>  <Class name>
-1

$$$$

Hi, just wondering whether `O=C1C=C(NCCCCCCNCc2cc3ccccc3o2)C(=O)C=C1NCCCCCCNCc1cc2ccccc2o1` shows inhibition of 30% or higher.
-1

Exam item: decide whether the reported inhibition for `O=C1C=C(NCCCNCc2nc3ccccc3s2)C(=O)C=C1NCCCNCc1nc2ccccc2s1` is at least 30%.
-1

Does the reported inhibition for `O=C1C=C(NCCCCCCNCc2nc3ccccc3s2)C(=O)C=C1NCCCCCCNCc1nc2ccccc2s1` fall at or above the 30% mark?
-1

State whether the measured inhibition reaches 30%, counting equality as reaching it, for `O=C1C=C(NCCCNCc2ccc(-c3nc4ccccc4s3)cc2)C(=O)C=C1NCCCNCc1ccc(-c2nc3ccccc3s2)cc1`
1

Identify whether the reported inhibition of the following compound is 30% or greater: `COc1cc(/C=C/C(=O)CC(=O)/C=C/c2ccc(O)c(OC)c2)ccc1O`
1

Determine whether measured inhibition meets or exceeds 30% for `O=C1C=C(NCCCCCCNCc2ccc(-c3nc4ccccc4s3)cc2)C(=O)C=C1NCCCCCCNCc1ccc(-c2nc3ccccc3s2)cc1`
-1

###

System: SH-SY5Y
Experiment: Neuroprotective activity in human SH-SY5Y cells assessed as inhibition of amyloid beta(1-42)-induced neurotoxicity at 1 uM incubated for 3 hrs by MTT assay
Format: functional
Parameters: scale not given: the % may be the effect or the level left
Measured parameter: Activity (%)
Answer format: numeric, % implied, no suffix.

>  <Compound>
CCN(CCCCCCNC1=CC(=O)C(NCCCCCCN(CC)Cc2ccccc2OC)=CC1=O)Cc1ccccc1OC [MEMOQUIN]

>  <Experimental target>
SH-SY5Y

>  <Scale unit>
%

>  <Activity>
70

$$$$
>  <Compound>
O=C1C=C(NCCCNCc2nc3ccccc3s2)C(=O)C=C1NCCCNCc1nc2ccccc2s1

>  <Experimental target>
SH-SY5Y

>  <Scale unit>
%

>  <Activity>
25

$$$$
>  <Compound>
COc1cc(CNCCCNC2=CC(=O)C(NCCCNCc3ccc(O)c(OC)c3)=CC2=O)ccc1O

>  <Experimental target>
SH-SY5Y

>  <Scale unit>
%

>  <Activity>
25

$$$$

// next item, Activity requested
// returns reported Activity for input `O=C1C=C(NCCCNCc2cc3ccccc3o2)C(=O)C=C1NCCCNCc1cc2ccccc2o1`
25

###

Recorded pIC50 values for a group of compounds are listed next.
Target: Cholinesterase (Homo sapiens)
Sequence (P06276 whole entry): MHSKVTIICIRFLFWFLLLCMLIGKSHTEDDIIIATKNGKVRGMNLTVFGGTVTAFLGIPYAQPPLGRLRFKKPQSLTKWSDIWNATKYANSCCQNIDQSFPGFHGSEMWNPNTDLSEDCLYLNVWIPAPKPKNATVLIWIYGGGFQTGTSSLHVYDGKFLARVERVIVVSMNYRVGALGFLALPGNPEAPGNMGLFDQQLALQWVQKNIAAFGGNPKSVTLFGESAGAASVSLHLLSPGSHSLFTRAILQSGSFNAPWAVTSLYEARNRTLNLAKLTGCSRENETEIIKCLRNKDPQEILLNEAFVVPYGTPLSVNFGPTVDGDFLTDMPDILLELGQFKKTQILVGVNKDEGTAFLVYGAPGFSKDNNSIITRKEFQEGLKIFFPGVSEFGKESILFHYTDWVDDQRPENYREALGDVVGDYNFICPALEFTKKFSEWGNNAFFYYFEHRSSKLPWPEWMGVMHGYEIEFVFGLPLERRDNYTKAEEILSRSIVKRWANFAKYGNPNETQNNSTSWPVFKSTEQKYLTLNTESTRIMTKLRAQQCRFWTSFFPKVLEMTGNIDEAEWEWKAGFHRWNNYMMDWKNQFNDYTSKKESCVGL
Test: Inhibition of human serum BuChE
// pIC50: -log10(molar conc.)

>  <Molecular string>
O=C1C=C(NCCCCCCNCc2ccc(-c3nc4ccccc4s3)cc2)C(=O)C=C1NCCCCCCNCc1ccc(-c2nc3ccccc3s2)cc1

>  <pIC50>
4.56

$$$$

// moving on: another record for pIC50
Data request, read-out pIC50, for `O=C1C=C(NCCCCCCNCc2cc3ccccc3o2)C(=O)C=C1NCCCCCCNCc1cc2ccccc2o1`
4.07
